Assay system Insulin-like growth factor 1 receptor (Homo sapiens, UniProt P08069); read-out recorded as pIC50.
pIC50: −log10 of the molar value.
value_kind: pIC50

Nc1ncnc2c1c(-c1cccc(OCC3CCCC3)c1)cn2[C@H]1C[C@@H](CN2CCC2)C1    6.08
Nc1ncnc2c1c(-c1cccc(OC[C@@H]3CCCO3)c1)cn2[C@H]1C[C@@H](CN2CCC2)C1    7.10
CC(C)CCOCCOc1cccc(-c2cn([C@H]3C[C@@H](CN4CCC4)C3)c3ncnc(N)c23)c1    6.43

1: COCCOc1cccc(-c2cn([C@H]3C[C@@H](CN4CCC4)C3)c3ncnc(N)c23)c1
2: CCOCCOc1cccc(-c2cn([C@H]3C[C@@H](CN4CCC4)C3)c3ncnc(N)c23)c1
Lab note: record which item had the higher pIC50, 1 or 2 . Return value: the label identifying the chosen record.
2
